molecular target: human secretin receptor (hSCTR) (human, UniProt P47872 23-440); test: cell-based or functional assay
Sequence (P47872 23-440): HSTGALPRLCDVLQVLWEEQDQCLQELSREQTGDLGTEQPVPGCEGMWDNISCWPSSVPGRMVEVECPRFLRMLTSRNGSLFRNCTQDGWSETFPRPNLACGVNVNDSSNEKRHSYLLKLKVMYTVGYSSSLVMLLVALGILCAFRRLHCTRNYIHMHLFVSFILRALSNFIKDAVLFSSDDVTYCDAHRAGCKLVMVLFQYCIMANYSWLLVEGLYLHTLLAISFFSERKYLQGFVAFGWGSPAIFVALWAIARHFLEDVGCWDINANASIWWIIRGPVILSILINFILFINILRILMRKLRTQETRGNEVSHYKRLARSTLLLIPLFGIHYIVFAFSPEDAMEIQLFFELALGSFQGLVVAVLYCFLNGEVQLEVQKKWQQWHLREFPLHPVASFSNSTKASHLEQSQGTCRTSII
Numbered stars: 1 amine (or outer) side, 2 acyl side, 3 side chain; on linkers, the order of the positions; unused ones are H or OH. Square brackets hold non-standard residues; d marks the D form. Side chains are listed from the residue outwards. Ends that are not written are not given here. * marks the point of attachment. C20 diacid = O=C(O)CCCCCCCCCCCCCCCCCCC(=O)*; γGlu = O=C(O)[C@H](CCC(=O)[*:2])N[*:1]; AEEA = NCCOCCOCC(=O)O; Aib = CC(C)(N)C(=O)O
readout_name: pEC50 hSCTR

H[Aib]EGTFTSDVSELK([AEEA-AEEA-γGlu-C20 diacid])EFAASQRFLEHLV-NH2 [SEQ ID NO: 8] : 5.8 -log M

Now let's try a different one.
Item under review: H[Aib]EGTFTSDVSVLK([AEEA-AEEA-γGlu-C20 diacid])ETAA[Aib]QRFLEHLV-NH2 (also: K14 lipid also given as C18DA[γE][OEG][OEG]-) [SEQ ID NO: 101] . Reported pEC50 hSCTR?
6 -log M
